Test system: Plasmodium vivax liver stage (primary human hepatocyte culture)
measurement_description: maximum inhibition of schizont net growth area; higher = more active
applied_conditions: P. vivax isolate: Pv590; hepatocyte lot: UBV; assay mode: Radical Cure, 8-day (treatment from day 5 post-infection)
For each entry below, report its maximum inhibition value.
Give bare numbers, in %.

Some solved entries appear below for comparison.
compound | reading_unit | maximum inhibition
CCOc1ccc2nc(C)cc(Nc3ccc(N(C)C)cc3)c2c1 | % | 84.6
OCc1ccc(-c2cncc(Nc3cccc(Cl)c3)c2)cc1 | % | 94.1
Cc1sc2ncnc(Sc3nc4ccccc4[nH]3)c2c1C | % | 92.9
CCN(CC)CCCNc1nc(-c2ccc(Cl)cc2)nc2ccccc12 | % | 99.6

Consider now this further compound.
// COc1ccc(-c2c(C)nn3c(N)c(C#N)cnc23)cc1OC : maximum inhibition value = 95.7

* * *

Test system: Plasmodium vivax liver stage (primary human hepatocyte culture)
applied_conditions: P. vivax isolate: Pv657; hepatocyte lot: BGW; assay mode: Radical Cure, 8-day (treatment from day 5 post-infection)
For each entry below, report its EC50 hypnozoite quantity value.

compound | recorded_measurement
Nc1ncc(-c2cn[nH]c2)cc1-c1nc2cc(Cl)cnc2[nH]1 | > 50 µM

// input: 2 molecules below; output: EC50 hypnozoite quantity for each
1. CN(C(=O)c1cc2c(-c3cncnc3)cccc2[nH]1)c1ccccc1
2. N#Cc1ccc(-c2cnc(N)c(-c3ccc(C(N)=O)cc3)n2)cc1

### Response
1. > 50 µM
2. > 50 µM

// input: 5 molecules below; output: EC50 hypnozoite quantity for each
1. COc1ccc(-c2cncc3ccc(C(=O)NCCCn4ccnc4)nc23)cc1
2. O=C(NCCN1CCCC1)c1cc(NCCCCN2CCC(F)(F)CC2)nc2ccc(Cl)cc12
3. COc1cc(-c2cc(-c3ccc(S(C)(=O)=O)cc3)cnc2N)ccc1O
4. COc1ccc(-c2nn(C(C)C)c3ncnc(N)c23)cc1OC
5. Nc1ncc(-c2ccc(C(F)(F)F)nc2)cc1-c1ccc(C(F)(F)F)nc1

### Response
["> 50 µM", "> 50 µM", "> 50 µM", "> 50 µM", "> 50 µM"]

// input: 2 molecules below; output: EC50 hypnozoite quantity for each
1. CC(C)(C)n1nc(-c2ccccc2)c2c(N)ncnc21
2. COc1ccc(-c2cnc3ccc(NCc4ccc(S(N)(=O)=O)cc4)nn23)cn1

### Response
1: > 50 µM; 2: > 50 µM

* * *

For each entry below, report its CC20 hepatic nuclei value.
Test system: primary human hepatocytes
measurement_description: CC20 hepatic nuclei (20% reduction); higher = less toxic
applied_conditions: P. vivax isolate: Pv657; hepatocyte lot: BGW; assay mode: Radical Cure, 8-day (treatment from day 5 post-infection)

Some solved entries appear below for comparison.
compound | CC20 hepatic nuclei
CN(C(=O)c1cc2c(-c3cncnc3)cccc2[nH]1)c1ccccc1 | > 50 µM
COc1ccc(-c2cncc3ccc(C(=O)NCCCn4ccnc4)nc23)cc1 | 44.8 µM
N#Cc1ccc(-c2cnc(N)c(-c3ccc(C(N)=O)cc3)n2)cc1 | > 50 µM
Nc1ncc(-c2ccc(C(F)(F)F)nc2)cc1-c1ccc(C(F)(F)F)nc1 | > 50 µM

// COc1ccc(-c2nn(C(C)C)c3ncnc(N)c23)cc1OC : CC20 hepatic nuclei value = > 50 µM

* * *

Tested on: Plasmodium cynomolgi Berok K4 asexual blood stage
measurement_description: EC50 asexual blood stage growth
applied_conditions: serum: 20% M. fascicularis serum
quantity_kind: EC50 asexual blood stage growth (nM)
Answers are plain numbers, in nM.

compound | quantity_kind | recorded_measurement
CC1CC(C)C(=O)C(C(O)CC2CC(=O)NC(=O)C2)C1 (stereo not drawn) [Cyclohexamide] | EC50 asexual blood stage growth | 40.1
Nc1ncc(-c2ccc(C(=O)N3CCNCC3)cc2)nc1-c1ccc(C(F)(F)F)cc1 | EC50 asexual blood stage growth | 20.6
CCc1nc(N)nc(N)c1-c1ccc(Cl)cc1 | EC50 asexual blood stage growth | 7.2
COc1ccc2nc3cc(Cl)ccc3c(Nc3cc(CN4CCCC4)c(O)c(CN4CCCC4)c3)c2n1 | EC50 asexual blood stage growth | 4
CCN(CC)CCCNc1ccnc2cc(Cl)ccc12 | EC50 asexual blood stage growth | 55.9
COc1cc2[nH]c(C)c(-c3ccc(Oc4ccc(OC(F)(F)F)cc4)cc3)c(=O)c2cc1Cl | EC50 asexual blood stage growth | 3.3
Clc1ccc2c(N[C@H]3CCCC[C@@H]3Nc3ccnc4cc(Cl)ccc34)ccnc2c1 | EC50 asexual blood stage growth | 3.6
CCc1nc(N)nc(N)c1OCCCOc1ccccc1CCC(=O)O | EC50 asexual blood stage growth | 1.7
CCN(CC)CCCC(C)Nc1ccnc2cc(Cl)ccc12 (stereo not drawn) | EC50 asexual blood stage growth | 32.8

Consider now this further compound.
// CCCCN(CCCC)CCC(O)c1cc2c(Cl)cc(Cl)cc2c2cc(C(F)(F)F)ccc12 (stereo not drawn) : EC50 asexual blood stage growth value = 0.5

* * *

For each entry below, report its EC50 asexual blood stage growth value.
Test system: Plasmodium cynomolgi Berok K4 asexual blood stage
measurement_description: EC50 asexual blood stage growth
applied_conditions: serum: 20% M. fascicularis serum
Give bare numbers, in nM.

compound | EC50 asexual blood stage growth [nM]
Cc1cc(Nc2ccc(S(F)(F)(F)(F)F)cc2)n2nc(C(C)(F)F)nc2n1 | 62.5

// input: 2 compounds below; output: EC50 asexual blood stage growth for each
1. CN(Cc1cnc2nc(N)nc(N)c2n1)c1ccc(C(=O)N[C@@H](CCC(=O)O)C(=O)O)cc1 [Methotrexate]
2. C[C@H]1c2cccc(O)c2C(=O)C2=C(O)[C@]3(O)C(=O)C(C(N)=O)=C(O)[C@@H](N(C)C)C3[C@@H](O)C21 (some centres not stated)

### Response
168
8350

// input: 2 compounds below; output: EC50 asexual blood stage growth for each
1. CCN(CC)CCCCCCNc1cc(OC)cc2c(C)ccnc12
2. CCN(CC)Cc1cc(Nc2ccnc3cc(Cl)ccc23)ccc1O

### Response
1: 1050; 2: 8.1

* * *

System: Plasmodium cynomolgi Berok K4 asexual blood stage
measurement_description: EC50 asexual blood stage growth
applied_conditions: serum: 20% M. fascicularis serum
quantity_kind: EC50 asexual blood stage growth

Some solved entries appear below for comparison.
compound | recorded_measurement
CC1CCC2C(C)C(O)OC3OC4(C)CCC1C32O4 (stereo not drawn) [Deoxydihydroartemisinin] | > 10 µM
CC12CCC3C(CC=C4CC(OS(=O)(=O)O)CCC43C)C1CCC2=O (stereo not drawn) [Dehydroepiandrosterone sulphate] | > 10 µM
CC(C)N=C(N)N=C(N)Nc1ccc(Cl)c(Cl)c1 | > 10 µM
CONC(=N)c1ccc(-c2ccc(-c3ccc(C(=N)NOC)cc3)o2)cc1 | > 10 µM
Nc1ccc(S(=O)(=O)c2ccc(N)cc2)cc1 | > 10 µM
CC(=O)N[C@@H](C(=O)O)C(C)(C)S | > 10 µM

// input: 2 compounds below; output: EC50 asexual blood stage growth for each
1. CC(C)N=C(N)N=C(N)Nc1ccc(Cl)cc1
2. Cc1cc2nc3c(=O)[nH]c(=O)nc-3n(CC(O)C(O)C(O)CO)c2cc1C (stereo not drawn)

### Response
1. > 10 µM
2. > 10 µM

src = the supplement of paper PMC8497498
